Molecular target: EGFR T790M L858R (Homo sapiens, UniProt P00533, L858R/T790M)
Construct: purchased Life Technologies PV4879
Sequence (P00533 25-1210 T790M/L858R): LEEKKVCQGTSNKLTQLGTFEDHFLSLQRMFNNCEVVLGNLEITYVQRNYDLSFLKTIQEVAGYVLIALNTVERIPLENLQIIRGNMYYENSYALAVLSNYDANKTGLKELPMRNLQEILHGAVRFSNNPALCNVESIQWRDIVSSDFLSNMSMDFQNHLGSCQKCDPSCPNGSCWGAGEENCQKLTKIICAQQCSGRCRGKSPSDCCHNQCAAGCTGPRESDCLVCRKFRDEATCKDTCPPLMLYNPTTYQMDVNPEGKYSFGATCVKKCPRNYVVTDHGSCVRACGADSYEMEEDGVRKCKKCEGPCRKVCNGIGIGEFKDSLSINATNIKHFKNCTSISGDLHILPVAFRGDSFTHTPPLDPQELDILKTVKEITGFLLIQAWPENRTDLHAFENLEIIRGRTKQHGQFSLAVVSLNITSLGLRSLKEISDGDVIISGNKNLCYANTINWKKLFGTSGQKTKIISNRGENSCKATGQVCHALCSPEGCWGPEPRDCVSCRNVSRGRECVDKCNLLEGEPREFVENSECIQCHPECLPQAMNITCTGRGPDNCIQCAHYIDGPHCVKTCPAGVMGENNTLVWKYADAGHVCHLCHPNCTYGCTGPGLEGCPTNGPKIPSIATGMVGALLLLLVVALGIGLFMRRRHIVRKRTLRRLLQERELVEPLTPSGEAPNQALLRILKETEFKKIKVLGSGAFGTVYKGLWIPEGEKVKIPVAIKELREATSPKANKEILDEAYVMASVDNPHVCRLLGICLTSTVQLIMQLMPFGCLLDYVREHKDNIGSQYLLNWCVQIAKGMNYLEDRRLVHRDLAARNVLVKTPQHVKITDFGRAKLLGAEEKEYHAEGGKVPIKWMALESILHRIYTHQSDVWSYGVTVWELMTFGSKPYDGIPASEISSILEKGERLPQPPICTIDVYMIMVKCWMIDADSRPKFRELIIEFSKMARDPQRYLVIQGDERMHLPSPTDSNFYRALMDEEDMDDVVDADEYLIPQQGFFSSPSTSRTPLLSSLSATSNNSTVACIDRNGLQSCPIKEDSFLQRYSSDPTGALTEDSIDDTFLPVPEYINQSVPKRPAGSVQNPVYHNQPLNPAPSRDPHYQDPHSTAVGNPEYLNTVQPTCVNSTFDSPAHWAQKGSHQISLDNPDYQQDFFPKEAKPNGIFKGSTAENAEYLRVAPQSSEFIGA
Test: EGFR T790M L858R biochemical assay (Caliper mobility shift)
Details: 5 μM ATP; apparent Ki (Morrison fit) converted by Cheng-Prusoff, Km of ATP 1.3 μM
Experimental: The exemplified compounds described herein were tested according to the assay below. The enzyme data reported in Tables 4-5 is generally a representative of multiple experiments. Reactions proceed for 30 minutes at room temperature (22° C.) and are terminated with 80 mM 2,2′,2″,2′″-(ethane-1,2-diyldinitrilo)tetraacetic acid (EDTA). Product is detected using the Caliper mobility shift detection method where product and substrate are electrophoretically separated and measured.
Here, each record is paired with measured pKi data.
On this scale, pKi is minus log10 of a concentration expressed in M (mol/L).

Below are worked cases with known answers.
{"columns": ["compound", "numeric_readout"],
 "data": [
  ["CC(C)n1nc(N2CCNC2=O)c2cnc(Nc3ccnc(N4CCC(O)C(F)C4)n3)cc21 (racemic) [Example 22]", 8.27],
  ["CC(C)n1nc(N2CC(N3CCOCC3)C2)c2cnc(Nc3ccnc(-c4cnn(S(=O)(=O)C5CC5)c4)n3)cc21 [Example 117]", 8.89],
  ["CC(C)n1nc(N2CC[C@H](N)C2=O)c2cnc(Nc3ccnc(N4CCC(C)(O)CC4)n3)cc21 [Example 159]", 7.94],
  ["CC[C@@H](C)n1nc(N2CC[C@@H](O)C2)c2cnc(Nc3ccnc(N4CCC5(CC4)CNC(=O)CO5)n3)cc21 (relative stereo) [Example 208]", 8.42],
  ["CC(C)n1nc(N2C[C@@H](O)[C@H](F)C2)c2cnc(Nc3ccnc(N4CC[C@H](O)[C@H](F)C4)n3)cc21 (relative stereo) [Example 131]", 9.10]
]}

Input line: What reported pKi corresponds to CC(C)n1nc(N2CCO[C@H](CO)C2)c2cnc(Nc3ccnc(N4CC[C@H](O)[C@H](F)C4)n3)cc21 [Example 132] on EGFR T790M L858R (Homo sapiens, UniProt P00533, L858R/T790M)?
Output line: 8.31

Input line: What reported pKi corresponds to CC[C@H](C)n1nc(N2CC[C@H](O)C2)c2cnc(Nc3ccnc(N4CC[C@](C)(O)[C@H](F)C4)n3)cc21 (relative stereo) [Example 70] on EGFR T790M L858R (Homo sapiens, UniProt P00533, L858R/T790M)?
Output line: 8.70
